Examples of sequences with documented pKd follow.
tested.target: HLA-B*27:05
procedure.details: IEDB peptide-MHC binding, purified MHC/direct/fluorescence; filed as Kd, often an IC50 or EC50 that approximates it; bounds were set here for any values at or beyond the usual limits of such assays
protocol.conditions: source organism: Coxiella burnetii
pKd: −log10 of the molar value.

These solved cases illustrate the format of a correct answer.
1) AISRLRTQK	≤ 4.70
2) EIYRTLYGL	≤ 4.70

Quick one: pKd for MTFPVSLEY ?
≤ 4.70

###

tested.target: HLA-A*03:01
procedure.details: IEDB peptide-MHC binding, purified MHC/direct/fluorescence; filed as Kd, often an IC50 or EC50 that approximates it; bounds were set here for any values at or beyond the usual limits of such assays
protocol.conditions: source organism: Rickettsia bellii
pKd: −log10 of the molar value.
observable: pKd

Value lookup for pKd; key = NIDPEHLDY
≤ 4.70

###

tested.target: HLA-B*08:01
procedure.details: IEDB peptide-MHC binding, purified MHC/direct/fluorescence; filed as Kd, often an IC50 or EC50 that approximates it; bounds were set here for any values at or beyond the usual limits of such assays
protocol.conditions: source organism: Mycobacterium tuberculosis str. Haarlem
observable: Kd
Include the unit right after the number.

# get_value(readout='Kd', item= RPAGARAAF )
6.85 µM

###

tested.target: HLA-A*11:01
procedure.details: IEDB peptide-MHC binding, purified MHC/competitive/radioactivity; filed as Kd, often an IC50 or EC50 that approximates it; bounds were set here for any values at or beyond the usual limits of such assays
protocol.conditions: source organism: Vaccinia virus WR
Note to self: class labels come from recorded Kd, ranges listed here: low = under 300 nM, mid = from 300 nM up to 1000 nM, high = 1000 nM and over

Which category does the recorded Kd put TTAFFNTCK in?
low

In plain terms, what class is KSGGLSSGFY ?
high

Exercise: read the entry KSTELIRRVR and state which class it falls under.
high

###

tested.target: HLA-B*48:01
procedure.details: IEDB peptide-MHC binding, purified MHC/direct/fluorescence; filed as Kd, often an IC50 or EC50 that approximates it; bounds were set here for any values at or beyond the usual limits of such assays
protocol.conditions: source organism: Mammarenavirus machupoense
pKd: −log10 of the molar value.
observable: pKd

Lab note: need pKd for FHEFLSSKL on HLA-B*48:01, anyone have it?
≤ 4.70

###

tested.target: HLA-B*46:01
procedure.details: IEDB peptide-MHC binding, purified MHC/direct/fluorescence; filed as Kd, often an IC50 or EC50 that approximates it; bounds were set here for any values at or beyond the usual limits of such assays
protocol.conditions: source organism: Camelpox virus M-96
pKd: −log10 of the molar value.
observable: pKd

Request body: readout pKd, system HLA-B*46:01, query ALYSYASAK . Return the value.
≤ 4.70

###

tested.target: HLA-B*58:01
procedure.details: IEDB peptide-MHC binding, purified MHC/competitive/radioactivity; filed as Kd, often an IC50 or EC50 that approximates it; bounds were set here for any values at or beyond the usual limits of such assays
protocol.conditions: source organism: Dengue virus 2 Peru/IQT2913/1996
observable: pKd
API: returns pKd as number; meaning -log10 of concentration in mol/L.

Form field: pKd recorded for KHAQRIETW with HLA-B*58:01 (enter value)
6.32

###

tested.target: HLA-B*51:01
procedure.details: IEDB peptide-MHC binding, purified MHC/competitive/fluorescence; filed as Kd, often an IC50 or EC50 that approximates it; bounds were set here for any values at or beyond the usual limits of such assays
protocol.conditions: source organism: Homo sapiens
observable: Kd

1) TLKDGDFIL	≥ 20 µM

GET /values?readout=Kd&item= IYDFYYLDY
≥ 20 µM

###

tested.target: HLA-C*12:03
procedure.details: IEDB peptide-MHC binding, purified MHC/direct/fluorescence; filed as Kd, often an IC50 or EC50 that approximates it; bounds were set here for any values at or beyond the usual limits of such assays
protocol.conditions: source organism: Influenza A virus (A/Hong Kong/532/1997(H5N1))
observable: pKd
Lab note: report pKd as minus log10 of the concentration in molar units, number only.

Can you look up the measured pKd of YLMAWKQVL for me?
7.66

###

tested.target: HLA-A*33:01
procedure.details: IEDB peptide-MHC binding, purified MHC/competitive/radioactivity; filed as Kd, often an IC50 or EC50 that approximates it; bounds were set here for any values at or beyond the usual limits of such assays
protocol.conditions: source organism: Vaccinia virus WR
observable: Kd

Sample records with Kd:
1) LQMAGVEVR	6.15 µM
2) TTAFFNTCK	0.997 µM
3) KASTISWMMK	≥ 50.4 µM
4) IAQYKCVTIK	≥ 24.1 µM
5) KSTELIRRVR	1.93 µM

Please report the recorded Kd for STDVNKQNK .
≥ 77.7 µM

// Kd lookup, key: GTDDEVIER
1.17 µM

Name the reported Kd value associated with the sequence SLIKTILASY
≥ 43.3 µM

Which Kd value belongs to LIVSLCPTK ?
1.44 µM

Fill in: Kd of ILSDENYLLK is ___
14.4 µM

###

tested.target: HLA-A*69:01
procedure.details: IEDB peptide-MHC binding, purified MHC/direct/fluorescence; filed as Kd, often an IC50 or EC50 that approximates it; bounds were set here for any values at or beyond the usual limits of such assays
protocol.conditions: source organism: Orthohantavirus hantanense
pKd: −log10 of the molar value.
observable: pKd

Fill in the blank: the reported pKd of GLQADAPHL is ____.
≤ 4.70

###

tested.target: HLA-C*14:02
procedure.details: IEDB peptide-MHC binding, purified MHC/direct/fluorescence; filed as Kd, often an IC50 or EC50 that approximates it; bounds were set here for any values at or beyond the usual limits of such assays
protocol.conditions: source organism: Mycobacterium tuberculosis H37Rv
observable: Kd (nM)
Quick note: give the figure in nM, leave out the unit.

Fill blank: measured Kd of the sequence YVRTNGASY is ____.
353

###

tested.target: HLA-A*01:01
procedure.details: IEDB peptide-MHC binding, purified MHC/competitive/radioactivity; filed as Kd, often an IC50 or EC50 that approximates it; bounds were set here for any values at or beyond the usual limits of such assays
protocol.conditions: source organism: Mammarenavirus machupoense
observable: Kd (nM)
# value in nM; strip the unit string

What value of measured Kd is listed for VDICFWSTI ?
1760

###

tested.target: HLA-B*08:01
procedure.details: IEDB peptide-MHC binding, purified MHC/competitive/fluorescence; bounds were set here for any values at or beyond the usual limits of such assays
protocol.conditions: source organism: Vaccinia virus Copenhagen
observable: IC50

Please give the measured IC50 for this sequence: LAKAIITPI
≥ 138 µM

###

tested.target: HLA-A*69:01
procedure.details: IEDB peptide-MHC binding, purified MHC/direct/fluorescence; filed as Kd, often an IC50 or EC50 that approximates it; bounds were set here for any values at or beyond the usual limits of such assays
protocol.conditions: source organism: Dengue virus 1 Singapore/S275/1990
observable: Kd

Item SMVNGVVKL has what recorded Kd?
≥ 20 µM

###

tested.target: HLA-A*68:02
procedure.details: IEDB peptide-MHC binding, purified MHC/direct/fluorescence; filed as Kd, often an IC50 or EC50 that approximates it; bounds were set here for any values at or beyond the usual limits of such assays
protocol.conditions: source organism: Rickettsia sibirica 246
pKd: −log10 of the molar value.
observable: pKd

Item EFVSANLAM has what recorded pKd?
≤ 4.70

###

tested.target: HLA-B*57:01
procedure.details: IEDB peptide-MHC binding, purified MHC/direct/fluorescence; filed as Kd, often an IC50 or EC50 that approximates it; bounds were set here for any values at or beyond the usual limits of such assays
protocol.conditions: source organism: Yersinia pestis
observable: Kd

Tell me reported Kd for MAMPEYWQF , tested with HLA-B*57:01.
0.0237 µM

###

tested.target: HLA-C*08:02
procedure.details: IEDB peptide-MHC binding, purified MHC/direct/fluorescence; filed as Kd, often an IC50 or EC50 that approximates it; bounds were set here for any values at or beyond the usual limits of such assays
protocol.conditions: source organism: Coxiella burnetii Dugway 5J108-111
pKd: −log10 of the molar value.
observable: pKd

Given the entry MTFPVSLEY , what pKd was observed with HLA-C*08:02?
≤ 4.70

###

tested.target: HLA-B*08:01
procedure.details: IEDB peptide-MHC binding, purified MHC/competitive/fluorescence; filed as Kd, often an IC50 or EC50 that approximates it; bounds were set here for any values at or beyond the usual limits of such assays
protocol.conditions: source organism: Vaccinia virus Copenhagen
pKd: −log10 of the molar value.
observable: pKd

Look up pKd for this sequence: ALYSYASAK
≤ 4.70

###

tested.target: HLA-A*03:01
procedure.details: IEDB peptide-MHC binding, purified MHC/competitive/radioactivity; filed as Kd, often an IC50 or EC50 that approximates it; bounds were set here for any values at or beyond the usual limits of such assays
protocol.conditions: source organism: Vaccinia virus WR
observable: pKd
The read-out pKd is expressed as -log10 of concentration in moles per litre.

Field: example entries. Status: answers known.
1. AALDGTFQRK	7.31
2. AIFTYTGGY	6.54
3. QTVNICIFY	6.08

# lookup: pKd of LQMAGVEVR
4.86

Please look up its pKd: HIKVDHPDK
5.29

Recorded values, source the Immune Epitope Database (IEDB).
